Target: T1, TipAH7 (Streptomyces lividans, UniProt P0A4T9 1-140)
T1 sequence: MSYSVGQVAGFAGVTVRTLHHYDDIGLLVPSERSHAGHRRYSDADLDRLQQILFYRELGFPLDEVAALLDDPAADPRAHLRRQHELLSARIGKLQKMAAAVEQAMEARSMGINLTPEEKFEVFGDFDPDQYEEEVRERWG
Assay: fluorescence polarization; no thiostrepton; 20 mM Tris-HCl pH 7.5, 200 mM NaCl, 5% (v/v) glycerol, 298 K; 10 nM labeled DNA
Details: protein: recombinant; tags: His6 (pET-28a); chain copies: 2; label: 5'-carboxyfluorescein; blunt
pKd: −log10 of the molar value.
PROPERTY NAME: pKd

1) ptipA (dsDNA) DNA 1: TTGCACCTCACGTCACGTGAGGAGGC DNA 2: GCCTCCTCACGTGACGTGAGGTGCAA | 6.50
